Where these numbers come from: the supplement of paper PMC8728848

Target: GalNAc(a1-3)GalNAc(b1-3)Gal(a1-4)Gal(b1-4)Glc
Test: glycan array binding signal (z-score within array); higher = stronger binding
Conditions: glycan notation: IUPAC condensed, linker removed
Only a selection was taken, and the strongest signals are over-represented in it overall.
Consider the following binders; for each one, report its glycan array binding signal (z-score).
Hey, just send me the number, nothing else.

Look up and state reported glycan array binding signal (z-score) for AT5G01260(PC)(40) (Arabidopsis thaliana), Q9LFB0 (protein) MIGIGRTLTSSSPSKIILEDLPPGIYRYGTEIFTSVPRKTFHHIKFLRLDSAQSSRILKPVPLRSSSIKDSQVNVEDEEIEASNKTVRVRFQLRKECVFGEHFFIVGDDPVFGGLWDPETALPLNWSDGNVWTVDLDLPVGRLVEFKLLLKAQTGEILWQPGPNRALETWETNKTIRICEDWDNADLQMMIEEDFVPYTNISSIGSEDEDEVLGSVQQNSSVVAVENAGYVSDESAQNSSFSIQSEKTMEPSNGALTAREVIKEAMFTEEESPVLVPGLIPLSDLDNEQVEVINEGKAETFPEVDKKQEPKAERNKKAKVKAISLFEKSEQEAVKSVEQRQYNAVEEEQQRLETEPLGTPDVLFENDIQWGRRTLYKLLSNFRLF
-0.513

Look up and state reported glycan array binding signal (z-score) for SUN4 (Saccharomyces cerevisiae), P53616 (protein) MGSSHHHHHHSSGLVPRGSHNGSIYGDLADFSGPYEKFEDGTIPCGQFPSGQGVIPISWLDEGGWSGVENTDTSTGGSCKEGSYCSYACQPGMSKTQWPSDQPSDGRSIGGLLCKDGYLYRSNTDTDYLCEWGVDAAYVVSELSNDVAICRTDYPGTENMVIPTYVQAGDSLPLTVVDQDTYYTWQGLKTSAQYYVNNAGISVEDACVWGSSSSGVGNWAPLNFGAGSSDGVAYLSLIPNPNNGNALNFNVKIVAADDSSTVNGECIYENGSFSGGSDGCTVSVTAGKAKFVLYN
-0.199
